- assay-details: serotonin-gated TRPC4 signal block – cell-based, second counter screen, HEK293 TRPC4/5HT1a, Fluo-4, counter-screen for TRPC4 inhibitor project, confirmation (AID 434978)
- experimental-conditions: Fluo-4 calcium flux, at 10 µM, serotonin added to trigger calcium flux
Activity calls are given as the source filed them.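 How the source made its calls: active means primary screen active whose calcium signal fell more than 3 SD beyond the full-serotonin control mean in both duplicate plates; inactive means the rest.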
Thanks in advance; please answer with one of these: 1.0 (active), 0.0 (inactive)

As a guide, the following entries are already answered.
CCCCC(=O)N(c1ccc(C(=O)O)cc1)c1nc(-c2ccc(Cl)cc2)c(CC)s1 : 1.0
CN(C)CCCN(C(=O)c1ccc(S(=O)(=O)N2CCc3ccccc3C2)cc1)c1nc2c(F)cc(F)cc2s1 : 0.0
Cn1c(-c2ccccc2)cnc1NCc1ccc(F)cc1 : 1.0
CC(C)Sc1nc2sc3c(c2c2nnc(SCC(=O)NCc4ccco4)n12)CCCC3 : 1.0

Problem: Just curious, what result did CCc1nc2ccccc2n1Cc1ccc(F)cc1 get here?
Result: 0.0
